Values compiled from PubChem BioAssay (NCI).

- Tested on: SF-268 CNS
- Experimental Details: NCI tumour cell line growth inhibition, 48 h
Measured Endpoint: TGI

INSERT INTO results (compound, measurement_target, measured_endpoint, recorded_value) VALUES
  ('CN(C)C=Nc1cccc2cnccc12', 'SF-268 CNS', 'TGI', '> 100 µM'),
  ('O=C1c2ccccc2-c2c1c1ccccc1c(=O)n2CCCN1CCN(CCCn2c3c(c4ccccc4c2=O)C(=O)c2ccccc2-3)CC1', 'SF-268 CNS', 'TGI', '> 100 µM'),
  ('COc1ccc(C(C2C(=O)N(C)C(=O)N(C)C2=O)C(F)(F)C(=O)N(C)C)cc1 (centres undefined)', 'SF-268 CNS', 'TGI', '> 100 µM'),
  ('N#Cc1cccc(NC(=O)c2oc3ccccc3c2-c2cnn(-c3ccccc3)c2)c1', 'SF-268 CNS', 'TGI', '> 500 µM'),
  ('CCOP(=O)(OCC)C(Cc1ccc(OC)c(OC)c1)N=C(c1ccccc1)c1ccccc1 (centres undefined)', 'SF-268 CNS', 'TGI', '> 100 µM');

Look up TGI for this compound: CC(C)c1cccc(C(C)C)c1NC(=O)C(=O)C(C(=O)c1ccc2ccccc2c1)C1OC(=O)c2ccccc21 (centres undefined)
> 100 µM

Look up TGI for this compound: CCN(CC)C(=S)SC1CCOP(=O)(N(CCCl)CCCl)N1C (centres undefined)
98.6 µM

Look up TGI for this compound: "CC(=O)[O-].CC(=O)[O-].[NH2-].[Pt+2].c1ccncc1"
> 100 µM

Look up TGI for this compound: "COc1ccc(C2=C(c3cc(OC)c(OC)c(OC)c3)C(=O)CC2)cc1"
> 33.8 µM

Look up TGI for this compound: CC(C)=CC(=O)OC1C2C(C)C(=O)OC2C(O)C(C)C2C=CC(=O)C21C (centres undefined)
8.42 µM

Look up TGI for this compound: COc1ccccc1S(=O)Nc1ccccc1 (centres undefined)
> 100 µM

Look up TGI for this compound: CSc1ccc2c(cc1=O)C(NC(=O)c1ccc(OC(C)=O)cc1)CCc1cc(O)c(O)c(O)c1-2 (centres undefined)
> 100 µM

###

- Test system: SK-MEL-2 melanoma
- Experimental Details: NCI tumour cell line growth inhibition, 48 h
Measured Endpoint: TGI (µM)
Reply with just the number (in µM).

Below: 3 molecules and their reported TGI.
INSERT INTO measurements (molecule, measurement_target, unit_spec, recorded_value) VALUES
  ('c1ccc2sc(C3(N4CCCCC4)CCCCCC3)cc2c1', 'SK-MEL-2 melanoma', 'µM', 68.4),
  ('CCOC(=O)C(=O)N=Nc1nc2c(O)c3ccccc3c(O)c2s1', 'SK-MEL-2 melanoma', 'µM', 8.98),
  ('CC(C)=CCc1c(C)cc2cc3c(c(O)c2c1O)C(O)=CC(=O)C3(CC=C(C)C)C/C=C(\C)CO (stereo unspecified)', 'SK-MEL-2 melanoma', 'µM', 29.8);

Look up TGI for this molecule: "O=C1/C(=C\c2coc3ccccc3c2=O)c2ccccc2N1c1c(Cl)cccc1Cl"
6.04

Look up TGI for this molecule: "N#CC(C#N)=CSc1ccccc1"
72.3

Look up TGI for this molecule: "COc1cc2c3c(n(C)c(=O)c2cc1OC)-c1cc2c(cc1/C3=C\CCCBr)OCO2"
69.4

Look up TGI for this molecule: "CC(=O)O[C@H]1CC[C@@]2(C)C(=CC[C@@H]3[C@@H]2CC[C@]2(C)C(=N/O)/C(=C/c4ccc([N+](=O)[O-])cc4)C[C@@H]32)C1"
17.5
